System: NQO1 specific enzyme activity in BEAS-2B cells (marker for NRF2 activation)
Test: BEAS-2B NQO1 MTT Assay
Assay type: cell-based
Details: Homo sapiens, BEAS-2B, 48 h, NQO1 specific activity induction, 48 hours with compound
readoutName: EC50

Guide cases for EC50, answers given:
molecule	result
CCn1cc(COC(c2ccc(C)c(CN(Cc3ccccn3)S(=O)(=O)c3cccc(Br)c3)c2)C(C)(C)C(=O)O)nn1 (stereo not drawn)	10 to 100 nM
CC[C@@H]1CN(Cc2cc([C@@H](OCc3cn(C)nn3)C(C)(C)C(=O)O)ccc2C)S(=O)(=O)c2ccccc2O1	< 1 nM
CC[C@@H]1CN(Cc2cc(C(OCc3cn(Cc4cccc(Cn5cc(COC(c6ccc(C)c(CN7C[C@@H](CC)Oc8ccccc8S7(=O)=O)c6)C(C)(C)C(=O)O)nn5)c4)nn3)C(C)(C)C(=O)O)ccc2C)S(=O)(=O)c2ccccc2O1 (stereo partly drawn)	10 to 100 nM

Now turn to the next molecule.
What does the record list as EC50 for CCn1cc(CO[C@H](c2ccc(C)c(CN3C[C@@H](C)Cc4ncccc4S3(=O)=O)c2)C(C)(C)C(=O)O)nn1 ?
< 1 nM
